Hey, just so you know, these numbers are from patent US20160083466A1.

Target under test: T1, monkey IL-25 expressed with a C-terminal myc-myc-hexahistidine tag (M. fascicularis (cynomolgus monkey))
T1 construct: also called Monkey IL-25-MMH; MfIL-25-MMH
T1 chain: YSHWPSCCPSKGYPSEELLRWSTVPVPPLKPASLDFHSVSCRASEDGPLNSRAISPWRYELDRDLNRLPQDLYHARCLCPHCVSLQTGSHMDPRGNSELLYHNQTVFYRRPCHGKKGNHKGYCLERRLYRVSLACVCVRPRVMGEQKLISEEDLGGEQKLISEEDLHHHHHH
Experiment description: SPR Biacore, antibody captured, 37C;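 also: biacore 4000 surface plasmon resonance biosensor measuring binding of IL-25-MMH to purified anti-IL-25 antibodies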
Observed property: Kd (nM)
# value in nM; strip the unit string

Consider the following illustrative entries.
Binder: H4H10876P (antibody, human IgG4, V domains shown, H4H prefix = human IgG4 Fc) VH: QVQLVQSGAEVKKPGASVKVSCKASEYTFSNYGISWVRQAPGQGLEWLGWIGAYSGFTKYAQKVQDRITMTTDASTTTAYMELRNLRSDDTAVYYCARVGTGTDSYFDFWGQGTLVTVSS VL: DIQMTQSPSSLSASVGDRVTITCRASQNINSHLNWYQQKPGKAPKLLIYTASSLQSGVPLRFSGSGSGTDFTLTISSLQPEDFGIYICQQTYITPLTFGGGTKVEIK
Kd, nM: 0.104

Binder: H4H10901P (antibody, human IgG4, V domains shown, H4H prefix = human IgG4 Fc) VH: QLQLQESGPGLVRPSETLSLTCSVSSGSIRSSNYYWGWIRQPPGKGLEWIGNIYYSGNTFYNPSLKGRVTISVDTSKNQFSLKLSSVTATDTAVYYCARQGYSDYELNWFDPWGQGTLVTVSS VL: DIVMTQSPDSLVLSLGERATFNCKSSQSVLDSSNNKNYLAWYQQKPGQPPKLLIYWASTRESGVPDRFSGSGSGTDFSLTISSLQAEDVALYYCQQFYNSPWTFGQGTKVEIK
Kd, nM: 0.0464

Binder: H4H10907P (antibody, human IgG4, V domains shown, H4H prefix = human IgG4 Fc) VH: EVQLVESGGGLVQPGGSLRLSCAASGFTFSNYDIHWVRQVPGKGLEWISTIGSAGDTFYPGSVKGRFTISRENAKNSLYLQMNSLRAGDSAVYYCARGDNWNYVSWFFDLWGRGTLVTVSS VL: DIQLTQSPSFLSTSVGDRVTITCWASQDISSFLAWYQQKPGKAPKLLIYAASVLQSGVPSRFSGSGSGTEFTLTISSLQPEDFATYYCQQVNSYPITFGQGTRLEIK
Kd, nM: 0.0671

Binder: H4H10883P (antibody, human IgG4, V domains shown, H4H prefix = human IgG4 Fc) VH: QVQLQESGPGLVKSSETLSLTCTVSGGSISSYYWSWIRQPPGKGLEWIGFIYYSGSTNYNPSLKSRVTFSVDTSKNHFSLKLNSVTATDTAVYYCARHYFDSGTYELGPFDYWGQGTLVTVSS VL: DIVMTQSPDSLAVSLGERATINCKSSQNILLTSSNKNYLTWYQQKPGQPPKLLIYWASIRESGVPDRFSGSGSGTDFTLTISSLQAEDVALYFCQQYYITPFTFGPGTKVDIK
Kd, nM: 0.0239

Binder: H4H10905P (antibody, human IgG4, V domains shown, H4H prefix = human IgG4 Fc) VH: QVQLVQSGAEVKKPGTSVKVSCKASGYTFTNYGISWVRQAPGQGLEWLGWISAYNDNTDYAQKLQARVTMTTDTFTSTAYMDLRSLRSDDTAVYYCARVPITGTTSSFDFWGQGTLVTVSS VL: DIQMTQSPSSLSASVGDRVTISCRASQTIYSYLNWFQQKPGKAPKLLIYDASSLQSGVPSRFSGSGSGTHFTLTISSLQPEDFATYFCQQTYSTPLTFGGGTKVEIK
Kd, nM: 0.135

Binder: H4H10897P (antibody, human IgG4, V domains shown, H4H prefix = human IgG4 Fc) VH: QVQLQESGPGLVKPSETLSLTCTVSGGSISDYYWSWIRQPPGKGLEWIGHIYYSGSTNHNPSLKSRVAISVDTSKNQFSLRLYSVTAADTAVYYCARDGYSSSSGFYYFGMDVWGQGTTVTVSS VL: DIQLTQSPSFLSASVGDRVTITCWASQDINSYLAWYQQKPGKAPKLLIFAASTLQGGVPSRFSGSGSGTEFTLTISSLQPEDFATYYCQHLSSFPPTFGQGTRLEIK
Kd, nM: 0.189

Recorded result, H4H10871P (antibody, human IgG4, V domains shown, H4H prefix = human IgG4 Fc) VH: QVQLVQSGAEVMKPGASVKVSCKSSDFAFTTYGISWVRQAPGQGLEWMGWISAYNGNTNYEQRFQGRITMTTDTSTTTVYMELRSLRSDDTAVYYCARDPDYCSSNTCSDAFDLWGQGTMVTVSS VL: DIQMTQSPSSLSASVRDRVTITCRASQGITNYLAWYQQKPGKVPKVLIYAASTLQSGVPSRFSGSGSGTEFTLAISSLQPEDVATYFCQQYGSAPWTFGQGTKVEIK , Kd: 0.0546

Recorded result, H4H10863P (antibody, human IgG4, V domains shown, H4H prefix = human IgG4 Fc) VH: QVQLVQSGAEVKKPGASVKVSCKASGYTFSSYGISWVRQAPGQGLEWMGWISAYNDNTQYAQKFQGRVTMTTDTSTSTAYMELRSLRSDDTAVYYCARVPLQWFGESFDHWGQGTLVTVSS VL: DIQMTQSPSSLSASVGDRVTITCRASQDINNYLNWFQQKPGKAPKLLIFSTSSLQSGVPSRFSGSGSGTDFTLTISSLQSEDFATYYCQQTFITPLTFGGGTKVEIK , Kd: 0.0685

Recorded result, H4H10861P (antibody, human IgG4, V domains shown, H4H prefix = human IgG4 Fc) VH: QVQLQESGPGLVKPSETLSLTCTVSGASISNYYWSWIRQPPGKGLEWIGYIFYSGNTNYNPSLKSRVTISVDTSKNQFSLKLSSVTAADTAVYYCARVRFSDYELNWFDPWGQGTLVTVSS VL: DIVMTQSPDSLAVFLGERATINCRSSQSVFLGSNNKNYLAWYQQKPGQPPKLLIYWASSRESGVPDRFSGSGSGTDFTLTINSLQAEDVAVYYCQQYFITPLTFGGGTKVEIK , Kd: 0.0236
